TESTED_ON: Tubulin (Homo sapiens) (UniProt P68371+Q9H4B7+P0DPH7+P68366+Q13509+Q71U36+P04350+Q3ZCM7+P07437+P68363+Q9BQE3+Q6PEY2+Q13885+Q9BVA1+Q9BUF5)
MEASUREMENT_PROTOCOL: Induction of tubulin depolymerization after 16 hrs
Type: protein-complex assay
Active and inactive are the calls of the source. The calls are words filed in the database; no cut-off is given here.
ENDPOINT: Activity

[[record]]
molecule = "COc1ccc(/C=C\\c2cc(OC)c(OC)c(OC)c2)cc1O"
result = "Active"

[[record]]
molecule = "COc1cc(C2c3cc4c(cc3Cn3nncc32)OCO4)cc(OC)c1OC (racemic)"
result = "Active"

[[record]]
molecule = "COc1cc([C@@H]2c3cc4c(cc3[C@H](O)[C@H]3COC(=O)[C@H]23)OCO4)cc(OC)c1OC"
result = "Active"


Entry source: ChEMBL document CHEMBL1137455
